Recorded values, source ChEMBL document CHEMBL1155225.

Listing: Activity of selected molecules
Target: UniProtKB P17712
Sequence (P17712 whole entry): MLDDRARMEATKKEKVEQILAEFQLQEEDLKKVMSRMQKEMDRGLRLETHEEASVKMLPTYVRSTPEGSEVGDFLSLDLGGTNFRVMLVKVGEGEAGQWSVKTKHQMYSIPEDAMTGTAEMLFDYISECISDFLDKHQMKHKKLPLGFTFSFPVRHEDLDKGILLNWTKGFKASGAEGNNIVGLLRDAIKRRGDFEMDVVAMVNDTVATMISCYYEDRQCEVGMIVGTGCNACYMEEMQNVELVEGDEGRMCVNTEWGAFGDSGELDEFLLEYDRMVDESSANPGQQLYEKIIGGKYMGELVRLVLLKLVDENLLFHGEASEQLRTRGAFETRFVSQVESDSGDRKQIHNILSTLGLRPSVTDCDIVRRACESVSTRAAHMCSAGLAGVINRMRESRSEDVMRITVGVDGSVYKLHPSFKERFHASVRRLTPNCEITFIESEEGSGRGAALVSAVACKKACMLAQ
Experiment: Activation of glucokinase-mediated of glucose phosphorylation in Sprague-Dawley rat hepatocytes assessed as release of [3H]H2O from [2-3H]glucose at 30 uM after 3 hrs
Type: cell-based
Conditions: Hepatocyte
Number only, in %; omit the unit.

The following molecules have reported results that may help.
Activity for COCCNS(=O)(=O)c1ccc(C(CC2CCCC2)C(=O)Nc2nc3ccc(OC)nc3s2)cc1 (centres undefined) is 85

Activity for COc1ccc2nc(NC(=O)C(CC3CCCC3)c3ccc(S(=O)(=O)N(C)C)cc3)sc2n1 (centres undefined) is 221

Activity for CCN(CC)S(=O)(=O)c1ccc(C(CC2CCCC2)C(=O)Nc2nc3ccc(OC)nc3s2)cc1 (centres undefined) is 345

// next item, Activity requested
Activity for COc1ccc2nc(NC(=O)C(CC3CCCC3)c3ccc(S(=O)(=O)N(C)Cc4ccco4)cc3)sc2n1 (centres undefined) is 67

----------
Listing: Activity of selected molecules
Molecular target: Hexokinase-4 (Rattus norvegicus)
Assay: Activation of glucokinase-mediated of glucose phosphorylation in Sprague-Dawley rat hepatocytes assessed as release of [3H]H2O from [2-3H]glucose at 30 uM after 3 hrs
Format: cell-based
Conditions: Hepatocyte

The following molecules have reported results that may help.
Activity for COc1ccc2nc(NC(=O)C(CC3CCCC3)c3ccc(S(=O)(=O)N4CCN(C)CC4)cc3)sc2n1 (centres undefined) is 498%

Activity for COc1ccc2nc(NC(=O)C(CC3CCCC3)c3ccc(S(=O)(=O)Nc4cccnc4)cc3)sc2n1 (centres undefined) is 219%

Activity for COc1ccc2nc(NC(=O)C(CC3CCCC3)c3ccc(S(=O)(=O)NCc4cccnc4)cc3)sc2n1 (centres undefined) is 281%

***
Activity for COc1ccc2nc(NC(=O)C(CC3CCCC3)c3ccc(S(=O)(=O)NC4CCCCC4)cc3)sc2n1 (centres undefined) is 78%

Activity for COc1ccc2nc(NC(=O)C(CC3CCCC3)c3ccc(S(=O)(=O)N4CCCCC4)cc3)sc2n1 (centres undefined) is 230%

Activity for COc1ccc2nc(NC(=O)C(CC3CCCC3)c3ccc(S(=O)(=O)NCc4ccccc4)cc3)sc2n1 (centres undefined) is 32%

Activity for COc1ccc2nc(NC(=O)C(CC3CCCC3)c3ccc(S(=O)(=O)NCc4ccco4)cc3)sc2n1 (centres undefined) is 14%

Activity for COc1ccc2nc(NC(=O)C(CC3CCCC3)c3ccc(S(=O)(=O)N4CCOCC4)cc3)sc2n1 (centres undefined) is 281%

Activity for `O=C(Nc1nc2cccnc2s1)c1ccccc1` is 411%

----------
Test: Cmax in C57BL/6 mouse muscle at 60 mg/kg
Format: ADME, organism-based, C57BL6, Muscle tissue
Set-up: dose 60 mg/kg
ASSAY METRIC: Cmax (µM)
Number only, in µM; omit the unit.

Cmax for `COc1ccc2nc(NC(=O)[C@H](CC3CCCC3)c3ccc(S(=O)(=O)N4CCN(C)CC4)cc3)sc2n1` is 34.6

----------
Target: Hexokinase-4 (Homo sapiens) (UniProt P35557)
Sequence (P35557 whole entry): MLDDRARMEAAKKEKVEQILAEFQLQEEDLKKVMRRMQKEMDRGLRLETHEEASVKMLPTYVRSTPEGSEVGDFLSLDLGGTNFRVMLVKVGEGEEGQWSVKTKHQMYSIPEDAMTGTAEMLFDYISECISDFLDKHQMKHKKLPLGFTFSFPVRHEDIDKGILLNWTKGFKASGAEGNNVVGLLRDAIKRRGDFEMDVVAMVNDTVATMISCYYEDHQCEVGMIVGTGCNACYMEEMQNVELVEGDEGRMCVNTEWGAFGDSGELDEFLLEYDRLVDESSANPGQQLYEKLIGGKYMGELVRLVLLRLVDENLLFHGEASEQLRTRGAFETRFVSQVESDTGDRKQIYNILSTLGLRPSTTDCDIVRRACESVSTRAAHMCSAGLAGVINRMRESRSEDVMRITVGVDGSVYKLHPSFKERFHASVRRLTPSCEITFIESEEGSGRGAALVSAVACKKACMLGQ
Experiment: Activation of His-tagged human recombinant liver glucokinase expressed in Escherichia coli BL21 (DE3) assessed as drug level required for half-maximal activation
Format: single protein
Threshold check on Activity: strictly below 300 nM is Fulfilled; on or above 300 nM is Not fulfilled.

Prompt line: Regarding COCCNS(=O)(=O)c1ccc(C(CC2CCCC2)C(=O)Nc2nc3ccc(OC)nc3s2)cc1 (stereo not drawn) , kindly confirm whether its Activity is beneath 300 nM.
Response line: Fulfilled

Prompt line: Regarding COc1ccc2nc(NC(=O)C(CC3CCCC3)c3ccc(S(=O)(=O)NCc4ccco4)cc3)sc2n1 (stereo not drawn) , kindly confirm whether its Activity is beneath 300 nM.
Response line: Not fulfilled

Prompt line: Regarding CCCN(CCC)S(=O)(=O)c1ccc(C(CC2CCCC2)C(=O)Nc2nc3ccc(OC)nc3s2)cc1 (stereo not drawn) , kindly confirm whether its Activity is beneath 300 nM.
Response line: Fulfilled

Prompt line: Regarding COc1ccc2nc(NC(=O)C(CC3CCCC3)c3ccc(S(=O)(=O)NCc4ccccc4)cc3)sc2n1 (stereo not drawn) , kindly confirm whether its Activity is beneath 300 nM.
Response line: Not fulfilled

Prompt line: Regarding COc1ccc2nc(NC(=O)C(CC3CCCC3)c3ccc(S(=O)(=O)NCc4ccncc4)cc3)sc2n1 (stereo not drawn) , kindly confirm whether its Activity is beneath 300 nM.
Response line: Fulfilled

***
Prompt line: Regarding COc1ccc2nc(NC(=O)C(CC3CCCC3)c3ccc(S(=O)(=O)N(C)Cc4nccn4C)cc3)sc2n1 (stereo not drawn) , kindly confirm whether its Activity is beneath 300 nM.
Response line: Fulfilled

Prompt line: Regarding `O=C(Nc1nc2cccnc2s1)c1ccccc1` , kindly confirm whether its Activity is beneath 300 nM.
Response line: Not fulfilled

Prompt line: Regarding COc1ccc2nc(NC(=O)C(CC3CCCC3)c3ccc(S(=O)(=O)NCc4ccccn4)cc3)sc2n1 (stereo not drawn) , kindly confirm whether its Activity is beneath 300 nM.
Response line: Fulfilled

Prompt line: Regarding COc1ccc2nc(NC(=O)C(CC3CCCC3)c3ccc(S(=O)(=O)N(C)Cc4ccco4)cc3)sc2n1 (stereo not drawn) , kindly confirm whether its Activity is beneath 300 nM.
Response line: Fulfilled

Prompt line: Regarding COc1ccc2nc(NC(=O)C(CC3CCCC3)c3ccc(S(=O)(=O)N(C)CCO)cc3)sc2n1 (stereo not drawn) , kindly confirm whether its Activity is beneath 300 nM.
Response line: Fulfilled

Prompt line: Regarding COc1ccc2nc(NC(=O)C(CC3CCCC3)c3ccc(S(=O)(=O)N4CCNCC4)cc3)sc2n1.Cl (stereo not drawn) , kindly confirm whether its Activity is beneath 300 nM.
Response line: Fulfilled
